{"compound": "O=S(=O)(Cl)C1CCOCC1", "melting point": "34 to 36 °C"}
{"compound": "O=C(c1ccc(Br)o1)N1CCNCC1", "melting point": "118 to 120 °C"}
{"compound": "COc1cccc(CNC(N)=O)c1", "melting point": "111 to 113 °C"}
{"compound": "NC1(C(=O)O)CCOc2ccccc21 (stereo not drawn)", "melting point": "239 to 241 °C"}
{"compound": "O=C(CCl)c1ccc(N2CCCC2=O)cc1", "melting point": "127 to 129 °C"}
{"compound": "Cc1cc(CC(=O)O)c(C)s1", "melting point": "66 to 68 °C"}
{"compound": "O=C(CCl)N1CC=C(c2ccccc2)CC1", "melting point": "86 to 88 °C"}
{"compound": "Cn1cc(SSc2cnn(C)c2)cn1", "melting point": "111 to 113 °C"}
{"compound": "CC(C)c1cc(N)n(-c2ncccn2)n1", "melting point": "146 to 148 °C"}
{"compound": "O=C(O)/C=C/c1ccc(OCc2cn3ccccc3n2)cc1", "melting point": "190 to 192 °C"}
{"compound": "COC(=O)c1[nH]c(C)cc1N", "melting point": "128 to 130 °C"}
{"compound": "Nc1nc(-c2ccc3ccccc3n2)n[nH]1", "melting point": "297 to 299 °C"}
{"compound": "Cc1ccc(NC(=O)C(C)Cl)cc1F (stereo not drawn)", "melting point": "102 to 104 °C"}
{"compound": "COc1ccc2[nH]c3c(c2c1)CCC3", "melting point": "119 to 121 °C"}
{"compound": "O=C(O)c1nccn2c(Br)cnc12", "melting point": "158 to 160 °C"}
{"compound": "Nc1ccc(N2CCOCC2)c(S(=O)(=O)Nc2ccccc2Cl)c1", "melting point": "219 to 221 °C"}
{"compound": "Cc1cc(C(=O)O)c2c(C(C)C)noc2n1", "melting point": "202 to 204 °C"}
{"compound": "NNC(=O)N1CCSCC1", "melting point": "129 to 131 °C"}

====

Catalogue of melting point readings, one per entry.

{"compound": "O=C(O)c1ccc(-c2ccc(F)cc2)o1", "melting point": "193 to 195 °C"}
{"compound": "COc1ccc(SCCC(=O)O)cc1", "melting point": "81 to 83 °C"}
{"compound": "COC(=O)C(C)NC(=O)Cc1ccc(Cl)cc1 (stereo unspecified)", "melting point": "82 to 84 °C"}
{"compound": "Cc1cc(C(=O)NCC(=O)O)c(C)o1", "melting point": "179 to 181 °C"}
{"compound": "Sc1ncnc2ccccc12", "melting point": "293 to 295 °C"}
{"compound": "Cc1ccc(F)c(C(=O)O)c1N", "melting point": "139 to 141 °C"}
{"compound": "CS(=O)(=O)OCCN1C(=O)c2ccccc2C1=O", "melting point": "140 to 142 °C"}
{"compound": "O=C(O)CCc1ncc(-c2ccccc2Br)o1", "melting point": "180 to 182 °C"}
{"compound": "NC(=O)c1ccc2c(c1)CCCC2", "melting point": "140 to 142 °C"}
{"compound": "O=c1[nH]c(-c2cccc(Cl)c2)cs1", "melting point": "163 to 165 °C"}
{"compound": "CC1CN(Cc2ccc(C(=O)O)cc2)CCO1 (stereo unspecified)", "melting point": "186 to 188 °C"}
{"compound": "CC(NC(=O)OC(C)(C)C)C(=O)Cc1ccccc1 (stereo unspecified)", "melting point": "59 to 61 °C"}
{"compound": "CCc1ccc(C(=O)O)s1", "melting point": "60 to 62 °C"}
{"compound": "O=C(O)c1ccc(SCCCO)cc1", "melting point": "168 to 170 °C"}
{"compound": "CC1(c2c(F)cccc2F)NC(=O)NC1=O (stereo unspecified)", "melting point": "215 to 217 °C"}
{"compound": "CNC(=O)c1ccc(C)c(N)c1", "melting point": "167 to 169 °C"}
{"compound": "Cc1c[nH]c(=O)n1-c1cccc(N)c1", "melting point": "232 to 234 °C"}
{"compound": "Nc1cccc(NC(=O)c2ccoc2)c1", "melting point": "120 to 122 °C"}
{"compound": "O=C(O)c1ccc(Oc2ccc(F)cc2[N+](=O)[O-])c(Cl)c1", "melting point": "155 to 157 °C"}
{"compound": "O=[N+]([O-])c1ccc2[nH]c(-c3cscn3)nc2c1", "melting point": "257 to 259 °C"}
{"compound": "O=C(O)c1ccc([N+](=O)[O-])c2cccnc12", "melting point": "204 to 206 °C"}
{"compound": "CC(C)N1N=C(C(=O)O)CCC1=O", "melting point": "131 to 133 °C"}
{"compound": "NNC(=O)Nc1ccc(Cl)cc1Cl", "melting point": "153 to 155 °C"}
{"compound": "Clc1ccc(SCc2nc(Cl)c3c4c(sc3n2)CCC4)cc1", "melting point": "71 to 75 °C"}
{"compound": "COC(=O)C(Cl)c1cc(Cl)cc(Cl)c1 (stereo unspecified)", "melting point": "56 to 58 °C"}
{"compound": "CNC(C(=O)O)c1cc(F)ccc1F (stereo unspecified)", "melting point": "239 to 241 °C"}
{"compound": "Cn1c(CC(=O)NN)nc2ccccc21", "melting point": "206 to 208 °C"}
{"compound": "COc1ccc(C(=O)c2ccc(F)cc2)cc1", "melting point": "90 to 92 °C"}
{"compound": "CN(C(=O)C(C)(C)C)c1ccc(O)cc1", "melting point": "189 to 191 °C"}
{"compound": "CN(C)CCn1c(S)nc2ccsc2c1=O", "melting point": "192 to 194 °C"}
{"compound": "O=C(O)CCc1ccccc1[N+](=O)[O-]", "melting point": "109 to 111 °C"}
{"compound": "O=C(O)c1cnn(-c2ccc(C(F)(F)F)cn2)c1C(F)(F)F", "melting point": "162 to 164 °C"}
{"compound": "CCCNC(=O)c1ccc(Cl)nc1", "melting point": "108 to 110 °C"}
{"compound": "O=C(C(Cl)c1ccccc1)N1CCCCC1 (stereo unspecified)", "melting point": "63 to 74 °C"}
{"compound": "NC(=O)Cc1ccc(Cl)cc1", "melting point": "183 to 185 °C"}
{"compound": "CN1C(=O)CCC(C(N)=O)C1c1cccc(Cl)c1 (stereo unspecified)", "melting point": "215 to 217 °C"}
{"compound": "CC(C)Oc1ccc(S(=O)(=O)N(C)C)cc1N", "melting point": "111 to 113 °C"}
{"compound": "N#CCc1ccc(Oc2ccc(C(=O)O)cc2)cc1", "melting point": "183 to 185 °C"}
{"compound": "CC1CCc2sc(C(=O)NN)cc2C1 (stereo unspecified)", "melting point": "122 to 124 °C"}
{"compound": "NC(=O)c1ccc(CSc2ccc(C(=O)O)cc2)cc1", "melting point": "304 to 306 °C"}
{"compound": "O=C(O)c1ccc2c(=O)n(-c3ccc(F)cc3)c(=O)[nH]c2c1", "melting point": "397 to 399 °C"}

====

Reported melting point by item:

{"smiles-record": "Clc1nc(Cl)c2ccccc2n1", "melting point": "117 to 119 °C"}
{"smiles-record": "COC(=O)CCCOc1ccccc1F", "melting point": "29 to 31 °C"}
{"smiles-record": "O=C(CCl)NCCOc1cccc(C(F)(F)F)c1", "melting point": "43 to 45 °C"}

====

melting point overview

{"compound": "O=C(Nc1ccccn1)OCC(F)(F)F", "melting point": "150 to 152 °C"}
{"compound": "CCOC(=O)c1cnn(-c2nc3ccccc3s2)c1N", "melting point": "137 to 139 °C"}
{"compound": "O=C1Cc2cc(S(=O)(=O)Cl)c(Cl)cc2N1", "melting point": "185 to 187 °C"}
{"compound": "NCc1noc(-c2ccco2)n1", "melting point": "143 to 145 °C"}
{"compound": "CC(C)c1ccc2cc(C(=O)O)[nH]c2c1", "melting point": "132 to 134 °C"}
{"compound": "CC1CN(c2ccc(NC(=O)OCC(F)(F)F)cc2F)CC(C)O1 (stereo unspecified)", "melting point": "130 to 132 °C"}
{"compound": "CN(CC(=O)O)c1ccc(C#N)cn1", "melting point": "170 to 172 °C"}
{"compound": "Cc1ccc(N)c(-c2nc(C3CC3)n[nH]2)c1", "melting point": "205 to 207 °C"}
{"compound": "Cn1c(=O)[nH]c(=O)c2cc(S(N)(=O)=O)cnc21", "melting point": "311 to 313 °C"}
{"compound": "Fc1cccc2c1CN=C1CCCN12", "melting point": "71 to 73 °C"}
{"compound": "CC(CC#N)Sc1ccccc1NC(=O)CCl (stereo unspecified)", "melting point": "89 to 91 °C"}
{"compound": "O=C(O)c1ccc(=O)n(CCOc2ccccc2)n1", "melting point": "138 to 140 °C"}
{"compound": "COC(=O)c1ncsc1S(N)(=O)=O", "melting point": "155 to 157 °C"}
{"compound": "CC(=O)NC1CCCNC1 (stereo unspecified)", "melting point": "65 to 67 °C"}
{"compound": "NC(=O)c1ccc(C(F)(F)F)nc1", "melting point": "185 to 187 °C"}
{"compound": "Cc1ccc(-c2cc(C(=O)O)on2)cc1", "melting point": "204 to 206 °C"}
{"compound": "O=C(O)c1cnc2c(c1)c(=O)[nH]c(=O)n2Cc1ccccc1", "melting point": "278 to 280 °C"}
{"compound": "O=[N+]([O-])c1cc(NS(=O)(=O)c2ccc3c(c2)OCCCO3)ccc1F", "melting point": "145 to 147 °C"}
{"compound": "CC(O)c1ccc(N2CCNC(=O)C2)cc1Cl (stereo unspecified)", "melting point": "186 to 188 °C"}
{"compound": "O=C(O)Cc1cnn(-c2ccccc2)n1", "melting point": "105 to 107 °C"}
{"compound": "Cc1noc(C)c1COc1ccc(CC(=O)O)cc1", "melting point": "138 to 140 °C"}
{"compound": "O=C(O)C1=C(c2ccccc2)N2CCS(=O)(=O)N=C2S1", "melting point": "244 to 246 °C"}
{"compound": "CN(C)c1nc[nH]c(=O)c1N", "melting point": "158 to 160 °C"}
{"compound": "CC(Cl)C(=O)Nc1c(F)c(F)c(F)c(F)c1F (stereo unspecified)", "melting point": "123 to 125 °C"}
{"compound": "Cc1onc(-c2ccncc2)c1C(=O)O", "melting point": "249 to 251 °C"}
{"compound": "Oc1cccc(CNC2CCC(O)CC2)c1 (stereo unspecified)", "melting point": "180 to 182 °C"}
{"compound": "Cc1cc(C)n(-c2cncc(Cl)n2)n1", "melting point": "88 to 90 °C"}
{"compound": "O=S(=O)(Cl)CCS(=O)(=O)c1ccccc1", "melting point": "172 to 174 °C"}
{"compound": "c1ccc(COc2cccc3cn[nH]c23)cc1", "melting point": "126 to 128 °C"}
{"compound": "NNC(=O)c1cc(-c2ccncc2)nc2ccccc12", "melting point": "226 to 228 °C"}
{"compound": "CCOC(=O)c1sc(-c2ccc(Br)cc2)cc1N", "melting point": "105 to 106 °C"}
{"compound": "Cc1ccccc1SCC(=O)O", "melting point": "108 to 110 °C"}
{"compound": "c1ccc(Nc2nc3ccccc3s2)cc1", "melting point": "139 to 141 °C"}
{"compound": "O=S(=O)(Cl)C1c2ccccc2-c2ccccc21", "melting point": "84 to 86 °C"}
{"compound": "O=[N+]([O-])c1cccc(-c2cn[nH]c2)c1", "melting point": "154 to 156 °C"}
{"compound": "Nc1ncc(C(=O)O)cc1Cl", "melting point": "338 to 340 °C"}
{"compound": "CC(=O)c1ccc(-c2ccccc2Cl)s1", "melting point": "54 to 56 °C"}
{"compound": "O=S(=O)(Cl)c1csc(-c2ccc(F)cc2)n1", "melting point": "75 to 77 °C"}
{"compound": "Cc1ccc(-c2nc(N)sc2C)cc1", "melting point": "173 to 175 °C"}
{"compound": "CCN(CC)c1ccnc(NN)n1", "melting point": "84 to 86 °C"}
{"compound": "O=C(O)CN1CCC(=O)NC1=O", "melting point": "197 to 199 °C"}
